Subject of test: Complex II (CII) (Rattus norvegicus, UniProt P21913+Q641Z9+Q6PCT8)
Sequence (P21913 31-282): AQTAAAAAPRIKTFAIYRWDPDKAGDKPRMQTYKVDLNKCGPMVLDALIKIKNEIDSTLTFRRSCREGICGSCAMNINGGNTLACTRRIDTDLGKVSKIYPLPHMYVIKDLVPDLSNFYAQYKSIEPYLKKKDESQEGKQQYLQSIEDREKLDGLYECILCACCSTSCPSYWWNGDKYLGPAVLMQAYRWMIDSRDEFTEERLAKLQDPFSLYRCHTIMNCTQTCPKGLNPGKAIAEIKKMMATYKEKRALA
Sequence (Q641Z9 30-169 limits assumed): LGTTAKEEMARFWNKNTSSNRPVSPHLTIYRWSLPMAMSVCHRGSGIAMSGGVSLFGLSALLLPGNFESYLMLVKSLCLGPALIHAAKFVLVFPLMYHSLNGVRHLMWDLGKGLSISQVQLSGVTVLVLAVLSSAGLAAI
Sequence (Q6PCT8 57-159): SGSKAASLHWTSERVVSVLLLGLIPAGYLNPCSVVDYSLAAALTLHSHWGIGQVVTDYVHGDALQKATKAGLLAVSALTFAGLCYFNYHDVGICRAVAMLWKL
Sequence (Q920L2 35-656 partner): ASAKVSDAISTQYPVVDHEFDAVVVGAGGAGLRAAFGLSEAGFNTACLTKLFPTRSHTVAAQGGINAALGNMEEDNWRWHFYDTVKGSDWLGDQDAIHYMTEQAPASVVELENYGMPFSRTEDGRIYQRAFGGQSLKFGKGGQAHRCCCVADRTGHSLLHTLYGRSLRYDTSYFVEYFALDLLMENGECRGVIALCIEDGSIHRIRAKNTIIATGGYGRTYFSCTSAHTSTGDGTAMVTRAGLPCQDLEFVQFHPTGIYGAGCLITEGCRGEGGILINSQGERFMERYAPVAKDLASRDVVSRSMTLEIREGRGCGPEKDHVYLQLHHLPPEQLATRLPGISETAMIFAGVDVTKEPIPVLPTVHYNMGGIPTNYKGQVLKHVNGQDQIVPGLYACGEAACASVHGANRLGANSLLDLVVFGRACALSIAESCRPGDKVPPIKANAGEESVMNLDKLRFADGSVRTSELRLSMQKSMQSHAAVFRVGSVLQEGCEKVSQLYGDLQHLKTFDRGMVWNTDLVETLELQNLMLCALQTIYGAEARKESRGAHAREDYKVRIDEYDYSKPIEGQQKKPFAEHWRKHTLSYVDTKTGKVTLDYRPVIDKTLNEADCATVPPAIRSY
Method notes: Complex II inhibition assay
Format: biochemical
Test context: CII IC50 expressed in μg/mL, conversion of the nM IC50
Endpoint name: IC50 (nM)
Kindly answer with a numeric value in nM, unit omitted.

## Task # query: IC50 of entry CCCCCC(=O)c1c(O)nc(OC)c(OC)c1O [16c]
## Result 64

====

Subject of test: Complex II (CII) (Rattus norvegicus, UniProt P21913+Q641Z9+Q6PCT8)
Method notes: Complex II inhibition assay
Type: biochemical
Test context: Ligand-Lipophilicity Efficiency (LLE = pIC50-ClogP)
Endpoint name: LLE
# output: bare number, no unit

> print(dat)
                                compound  reported.measurement
1  CCCCCCC(=O)c1c(O)nc(OC)c(OC)c1O [16f]                  4.57

## Task # query: LLE of entry CCCCCCCCCCCCC(=O)c1c(O)nc(OC)c(OC)c1O [16k]
## Result 3.76

## Task # query: LLE of entry CCCCCCCCC(=O)c1c(O)nc(OC)c(OC)c1O [16h]
## Result 4.93

## Task # query: LLE of entry CCCCCCCC(=O)c1c(O)nc(OC)c(OC)c1O [16g]
## Result 4.89

## Task # query: LLE of entry CCCCCC(=O)c1c(O)nc(OC)c(OC)c1O [16c]
## Result 5.62

## Task # query: LLE of entry CCCCC(=O)c1c(O)nc(OC)c(OC)c1O [16b]
## Result 5.37

## Task # query: LLE of entry CCCCCCCCCCC(=O)c1c(O)nc(OC)c(OC)c1O [16j]
## Result 4.32

====

Subject of test: Complex II (CII) (Rattus norvegicus, UniProt P21913+Q641Z9+Q6PCT8)
Method notes: Complex II inhibition assay
Assay type: biochemical
Test context: read-out: CII IC50 expressed in μg/mL; conversion of the nM IC50
Endpoint name: IC50 (nM)
Kindly answer with a numeric value in nM, unit omitted.

## Task # query: IC50 of entry CCCCCCCCCCCCC(=O)c1c(O)nc(OC)c(OC)c1O [16k]
## Result 3.29
